measurement_description: Serum stability assay
Assay type: in vitro ADME, human
test_parameters: 100% human serum (Sigma-Aldrich, human male AB plasma), 100 μM peptide, 37 °C, 0-24 h, TFA precipitation, UPLC-MS, triplicates
Bridge positions count the residues as written; N and C are the ends. Square brackets hold non-standard residues; d marks the D form. Peptide text beside a SMILES is read from it. βAla = NCCC(=O)O

| molecule | readout_units | half-life at 100 μM |
| --- | --- | --- |
| CC[C@H](C)[C@@H]1NC(=O)[C@H](Cc2c[nH]c3ccccc23)NC(=O)[C@H](CCCNC(=N)N)NC(=O)[C@H](C(C)C)NC(=O)[C@H](CCCNC(=N)N)NC(=O)[C@H](CCCNC(=N)N)NC(=O)[C@H](CCCCN)NC(=O)CCNC(=O)CCNC(=O)[C@@H](N)CSSC[C@@H](C(=O)O)NC(=O)CCNC(=O)CCNC(=O)[C@H](Cc2c[nH]c3ccccc23)NC(=O)[C@H]([C@@H](C)CC)NC1=O [c-optP7] (H-C[βAla][βAla]KRRVRWIIW[βAla][βAla]C-OH; disulfide 1-15) | min | 9 |

Just for reference, paper PMC8228819 is where these values come from.
